assay: Antibacterial activity against NEO-sensitive Enterobacter cloacae 13047 at 6.25 uM after 15 to 20 hrs by CLSI protocol based microdilution assay relative to control; type: functional, Enterobacter cloacae subsp. cloacae, ATCC 13047
For each entry below, report its Activity value.
All answers are understood in %, so give the number only.

Entry under review: NC[C@@H]1O[C@H](O[C@H]2[C@@H](O)[C@H](O[C@@H]3[C@@H](O)[C@H](N)C[C@H](N)[C@H]3O[C@H]3O[C@H](CN)[C@@H](O)[C@H](O)[C@H]3N)O[C@@H]2CNC(=O)CCc2ccc3ccc4cccc5ccc2c3c45)[C@H](N)[C@@H](O)[C@@H]1O . Reported Activity?
0

Entry under review: NC[C@@H]1O[C@H](O[C@H]2[C@@H](O)[C@H](O[C@@H]3[C@@H](O)[C@H](N)C[C@H](N)[C@H]3O[C@H]3O[C@H](CN)[C@@H](O)[C@H](O)[C@H]3N)O[C@@H]2CNC(=O)CCCc2ccc3ccc4cccc5ccc2c3c45)[C@H](N)[C@@H](O)[C@@H]1O . Reported Activity?
5

Entry under review: NC[C@@H]1O[C@H](O[C@H]2[C@@H](O)[C@H](O[C@@H]3[C@@H](O)[C@H](N)C[C@H](N)[C@H]3O[C@H]3O[C@H](CN)[C@@H](O)[C@H](O)[C@H]3N)O[C@@H]2CSCCNC(=O)Cc2ccc3ccc4cccc5ccc2c3c45)[C@H](N)[C@@H](O)[C@@H]1O . Reported Activity?
5

Entry under review: NC[C@@H]1O[C@H](O[C@H]2[C@@H](O)[C@H](O[C@@H]3[C@@H](O)[C@H](N)C[C@H](N)[C@H]3O[C@H]3O[C@H](CN)[C@@H](O)[C@H](O)[C@H]3N)O[C@@H]2CNC(=O)Cc2ccc3ccc4cccc5ccc2c3c45)[C@H](N)[C@@H](O)[C@@H]1O . Reported Activity?
0
